// reported IC50 per item
# Tested on: Ub-PCNA levels in the nucleus of ES2 cells (USP1 activity)
# PROTOCOL_TEXT: ES2 Ub-PCNA immunofluorescence (IF) assay
# Assay type: cell-based
# MEASUREMENT_CONDITIONS: Homo sapiens, ES-2; ES2 cells, 3 hours, Ub-PCNA immunofluorescence; read-out: USP1 IC50 (Ub-PCNA)

1) CCn1cc(C(F)(F)F)nc1-c1ccc([C@H](C)N2CCCn3nc(-c4c(Cl)cnn4C(C)C)cc32)cc1 (single isomer, unassigned) [Example 67] = < 100 nM
2) CCn1cc(C(F)(F)F)nc1-c1ccc(OC2CCCn3nc(-c4c(Cl)cnn4C(C)C)cc32)cc1F (centres unmarked) [Example 262] = 100 to 500 nM
3) COc1ncnc(C2CC2)c1-c1nc2n(n1)CCC(=O)N2C(C)c1ccc(-c2nc(C(F)(F)F)cn2C(C)C)cc1 (centres unmarked) [Example 169] = 100 to 500 nM
4) COc1ncnc(C2CC2)c1-c1nc2n(n1)CCC(=O)N2Cc1ccc(-c2nc(C(F)(F)F)cn2C(C)C)c(Cl)c1 [Example 172] = 100 to 500 nM
5) CCn1cc(C(F)(F)F)nc1-c1ccc([C@H](C)N2C(=O)CCn3nc(-c4c(Cl)cnn4C(C)C)nc32)cc1 [Example 193] = < 100 nM
6) CCn1cc(C(F)(F)F)nc1-c1ccc(NC2CCCc3nn(-c4ccccc4C(C)C)cc32)cc1F (centres unmarked) [Example 355] = 100 to 500 nM
7) COc1cc(CN2C(=O)CCn3nc(-c4c(Cl)cnn4C(C)C)nc32)ccc1-c1nc(C(F)(F)F)cn1C(C)C [Example 165] = 100 to 500 nM
8) CCn1cc(C(F)(F)F)nc1-c1ccc(C(C)N2C(=O)CCn3nc(-c4c(Cl)cnn4C(C)C)cc32)cc1F (centres unmarked) [Example 119] = < 100 nM

Request: Please report the recorded IC50 for COc1cc(C(F)(F)F)nn1-c1ccc(CN2C(=O)CCn3nc(-c4c(Cl)cnn4C(C)C)cc32)cc1 [Example 96] .
Response: < 100 nM

Request: What IC50 value was documented for this molecule, CCn1cc(C(F)(F)F)nc1-c1ccc(C(C)N2CCCn3nc(-c4c(Cl)cnn4C(C)C)cc32)cc1 (centres unmarked) [Example 65] ?
Response: < 100 nM

Request: State the recorded IC50 for this entry: CCn1cc(C(F)(F)F)nc1-c1ccc(CN2C(=O)C(C)Cn3nc(-c4c(Cl)cnn4C(C)C)nc32)cc1F (centres unmarked) [Example 350]
Response: < 100 nM

* * *

Each entry below carries its reported solubility at 24 h.
# PROTOCOL_TEXT: ADME solubility determination in PBS at pH 2.0 and pH 7.4
# Type: physicochemical
# MEASUREMENT_CONDITIONS: phosphate buffered saline, 25 °C, pH 7.4, aqueous buffer, thermodynamic from solid, PBS pH 7.4, 25° C., read-out: Solubility at pH 7.4

The following compounds have reported results that may help.
1. CCn1cc(C(F)(F)F)nc1-c1ccc(COC2CCCn3nc(-c4c(Cl)cnn4C(C)C)cc32)cc1 (stereo not drawn) [Example 270] = < 10 µM
2. COc1cc(C(F)(F)F)nn1-c1ccc(CN2C(=O)CCn3nc(-c4c(C)cnn4C(C)C)cc32)cc1F [Example 12] = < 10 µM
3. COCCOc1cc(CN2C(=O)CCn3nc(-c4c(Cl)cnn4C(C)C)nc32)ccc1-c1nc(C(F)(F)F)cn1C(C)C [Example 167] = < 10 µM

Request: Quick one: solubility at 24 h for COc1ncnc(C2CC2)c1-c1nc2n(n1)CCC(=O)N2[C@@H](C)c1ccc(-c2nc(C(F)(F)F)cn2C2CC2)cc1 [Example 200] ?
Response: ≥ 10 µM

Request: Give the measured solubility at 24 h of COc1ncnc(C2CC2)c1-c1cc2n(n1)CCC(=O)N2Cc1ccc(-c2nc(C(F)(F)F)cn2C(C)C)c(F)c1 [Example 18] .
Response: < 10 µM

Request: Could you tell me which solubility at 24 h is on file for COc1c(CN2C(=O)CCn3nc(-c4c(OC(F)F)ncnc4C4CC4)nc32)ccc(-c2nc(C(F)(F)F)cn2C(C)C)c1F [Example 365] ?
Response: < 10 µM

Request: Using the record for CCn1cc(C(F)(F)F)nc1-c1ccc(CN2C(=O)CCn3nc(-c4c(Cl)cnn4C(C)(C)COC)cc32)cc1F [Example 162] , report its solubility at 24 h.
Response: ≥ 10 µM

Request: Reported solubility at 24 h for COc1ncnc(C2CC2)c1-c1cc2n(n1)CCC(C)N2Cc1ccc(-c2nc(C(F)(F)F)cn2C)cc1 (racemic) [Example 48] : what is it?
Response: ≥ 10 µM

Request: Tell me the measured solubility at 24 h of COc1ncnc(C2CC2)c1-c1nc2n(n1)CCC(=O)N2Cc1ccc(-c2nc(C(F)(F)F)cn2C(C)CF)cc1 (stereo not drawn) [Example 195] , please.
Response: ≥ 10 µM
